- target-entity: Sho1, P40073
- Sequence (P40073 287-367): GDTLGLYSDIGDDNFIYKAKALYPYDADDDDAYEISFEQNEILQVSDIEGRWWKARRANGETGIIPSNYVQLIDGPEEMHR
- method-notes: SPOT array
- details: median of control spots 1148
Provide the reported SPOT intensity of each item.
Number, no unit, nothing else.

Ask: Record request: SPOT intensity value, item TPRLSLPRLPNKHHW
Reply: 35

Ask: What measured SPOT intensity goes with AAHKTKPSIPPKKVE ?
Reply: 4

Ask: Looking for the measured SPOT intensity of RKNRAPPQRPRFNRE , can you help?
Reply: 178

Ask: Report SPOT intensity for RKLRTVPGVPLIHLT please.
Reply: 6
